Recorded values, source patent US20260242478A1.

target: T1, Anti-PSMA Fab (SEQ ID NOs: 19, 20); experiment: phage ELISA; biotinylated PSMA Fab on neutravidin plate pre-incubated with PSMA antigen as competitor, anti-M13-HRP detection
T1 construct: also called 006 PSMA Fab
reported.metric: Phage binding ELISA, Anti-PSMA Fab signal in the presence of PSMA

# example entries with known answers
1. EMKLCRPAWMCEYM [Phage-2141] :: 0.0727
2. MVNWCTPPWMCWGF [Phage-2145] :: 0.194
3. DANWCKPTWMCAGF [Phage-2132] :: 0.109
4. FEMLCTPPWMCVGL [Phage-2133] :: 0.0639
5. LEKWCTPSWMCIGI [Phage-2139] :: 0.0773
6. VLKWCIPTWMCETQ [Phage-2137] :: 0.0908
7. VQKWCIPEWMCAVA [Phage-2138] :: 0.0584
8. VYKWCTPPWMCTQM [Phage-2136] :: 0.0779

Field Phage binding ELISA, Anti-PSMA Fab signal in the presence of PSMA (entry TERWCVPAWMCTLV [Phage-2135] ) reads 0.0741

Field Phage binding ELISA, Anti-PSMA Fab signal in the presence of PSMA (entry VWHWCTPPWMCNAE [Phage-2143] ) reads 0.141

Field Phage binding ELISA, Anti-PSMA Fab signal in the presence of PSMA (entry EHKWCIPSWMCADM [Phage-2140] ) reads 0.108

Field Phage binding ELISA, Anti-PSMA Fab signal in the presence of PSMA (entry AEKWCIPNWMCEAG [Phage-2144] ) reads 0.0588

Field Phage binding ELISA, Anti-PSMA Fab signal in the presence of PSMA (entry IPKWCTPVWMCEGM [Phage-2142] ) reads 0.0647

Field Phage binding ELISA, Anti-PSMA Fab signal in the presence of PSMA (entry SAPWCIPEWMCFSL [Phage-2146] ) reads 0.101

Field Phage binding ELISA, Anti-PSMA Fab signal in the presence of PSMA (entry EGKWCIPEWMCSAS [Phage-2134] ) reads 0.0777
